- assay-target: Human adrenergic α2A receptor (Homo sapiens, UniProt P08913)
- Sequence (P08913 whole entry): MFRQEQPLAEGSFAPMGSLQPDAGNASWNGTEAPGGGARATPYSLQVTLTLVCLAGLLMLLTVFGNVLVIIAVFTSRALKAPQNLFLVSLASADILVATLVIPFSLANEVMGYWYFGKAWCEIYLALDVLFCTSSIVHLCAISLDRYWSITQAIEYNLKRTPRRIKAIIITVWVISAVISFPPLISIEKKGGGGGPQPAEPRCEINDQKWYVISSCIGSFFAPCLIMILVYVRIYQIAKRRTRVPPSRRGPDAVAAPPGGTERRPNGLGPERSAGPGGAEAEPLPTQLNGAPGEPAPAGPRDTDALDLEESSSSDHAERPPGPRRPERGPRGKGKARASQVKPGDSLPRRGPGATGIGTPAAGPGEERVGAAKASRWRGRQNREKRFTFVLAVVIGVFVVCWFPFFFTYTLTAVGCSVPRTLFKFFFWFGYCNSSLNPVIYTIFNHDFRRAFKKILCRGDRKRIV
- protocol-description: β-Arrestin GPCR functional assay, adrenergic α2A (Protocol B)
- Assay type: cell-based
- conditions-used: 0.3 μM compound; nor-epinephrine at EC80 (270 nM)
Measured Percentage inhibition, Adrenergic α2A of individual entries
test-readout: Percentage inhibition, Adrenergic α2A (%)

                                   molecule                           test_readout  observed
0  Cc1ccc2c(c1)c1c(n2CC(O)c2ccncc2F)CCN2CCCC12 (single isomer, unassigned) [14a]  Percentage inhibition, Adrenergic α2A        −2
1  Cc1ccc2c(c1)c1c(n2CC(C)(O)c2ccncc2)CCN2CCCC12 (single isomer, unassigned) [13b]  Percentage inhibition, Adrenergic α2A        30
2  Cc1ccc2c(c1)c1c(n2CC(O)c2ccncc2F)CCN2CCCC12 (single isomer, unassigned) [14b]  Percentage inhibition, Adrenergic α2A        44
3  Cc1cc(C)c2c(c1)c1c(n2CC(C)(O)c2ccncc2)CCN2CCCC12 (single isomer, unassigned) [19b]  Percentage inhibition, Adrenergic α2A        20

---

- assay-target: Human adrenergic α1B receptor (Homo sapiens)
- Sequence (P35368 1-520): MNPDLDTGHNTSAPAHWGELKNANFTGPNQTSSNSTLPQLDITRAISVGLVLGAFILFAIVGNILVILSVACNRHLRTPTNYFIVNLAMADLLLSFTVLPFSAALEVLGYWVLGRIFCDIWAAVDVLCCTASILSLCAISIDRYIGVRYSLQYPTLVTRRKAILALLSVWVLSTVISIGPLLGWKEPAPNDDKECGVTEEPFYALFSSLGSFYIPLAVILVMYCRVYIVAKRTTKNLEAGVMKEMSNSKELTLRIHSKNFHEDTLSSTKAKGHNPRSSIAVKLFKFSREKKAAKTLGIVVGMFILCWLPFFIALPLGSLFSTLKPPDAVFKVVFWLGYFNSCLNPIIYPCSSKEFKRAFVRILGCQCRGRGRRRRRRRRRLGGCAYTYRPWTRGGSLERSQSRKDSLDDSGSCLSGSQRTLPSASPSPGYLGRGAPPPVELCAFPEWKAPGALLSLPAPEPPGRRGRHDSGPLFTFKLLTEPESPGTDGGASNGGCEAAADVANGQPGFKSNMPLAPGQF
- protocol-description: Radioligand binding, adrenergic α1B (Protocol Group B)
- Set-up: purchased Milipore (Millipore)
- conditions-used: 0.1 μM compound; Protocol Group B; 0.1 µM
test-readout: Percentage inhibition of ligand binding, Adrenergic α1B (0.1 μM) (%)

                                    molecule                              assay_target  quantity_unit  observed
 0  Cc1ccc2c(c1)c1c(n2CC(OCC2CCC2)c2ccncc2)CCN2CCCC12 (single isomer, unassigned) [138c]  Human adrenergic α1B receptor (Homo sapiens)              %         4
 1  Cc1ccc2c(c1)c1c(n2CC(O)c2ccncc2)CNC2CCCC12 (single isomer, unassigned) [34b]  Human adrenergic α1B receptor (Homo sapiens)              %       −16
 2  CC(O)(Cn1c2c(c3cc(F)ccc31)C1CCCN1CC2)c1cccnc1 (stereo not drawn) [57a]  Human adrenergic α1B receptor (Homo sapiens)              %        −4
 3  Cc1ccc2c(c1)c1c(n2CC(C)(O)c2ccncc2)CC2CCCN2C1 (single isomer, unassigned) [37a]  Human adrenergic α1B receptor (Homo sapiens)              %        26
 4  Cc1cc(F)c2c(c1)c1c(n2CC(C)(O)c2ccncc2)CC2CCCN2C1 (single isomer, unassigned) [62b]  Human adrenergic α1B receptor (Homo sapiens)              %         2
 5  Cc1ccc2c(c1)c1c(n2CC(C)(O)c2ccc(N(C)C)nc2)CCN(C)C1 (single isomer, unassigned) [39b]  Human adrenergic α1B receptor (Homo sapiens)              %        10
 6  CN1CCc2c(c3cc(CCO)ccc3n2CC(C)(O)c2cccnc2)C1 (single isomer, unassigned) [139b]  Human adrenergic α1B receptor (Homo sapiens)              %         1
 7  Cc1cc(F)cc2c3c(n(CC(C)(O)c4ccncc4)c12)CC1CCCN1C3 (single isomer, unassigned) [78b]  Human adrenergic α1B receptor (Homo sapiens)              %         2
 8  CCOC(Cn1c2c(c3cc(C)ccc31)CN(C)CC2)c1ccncc1 (single isomer, unassigned) [43a]  Human adrenergic α1B receptor (Homo sapiens)              %        29
 9  Cc1ccc2c(c1)c1c(n2CC(OCC2CCC2)c2ccncc2)CCN2CCCC12 (single isomer, unassigned) [138d]  Human adrenergic α1B receptor (Homo sapiens)              %         0
10  Cc1cc(F)cc2c3c(n(CC(C)(O)c4cccnc4)c12)CC1CCCN1C3 (single isomer, unassigned) [76c]  Human adrenergic α1B receptor (Homo sapiens)              %        19
11  Cc1ccc2c(c1)c1c(n2CC(C)(O)c2ccncc2)CCN2CCCC12 (single isomer, unassigned) [13d]  Human adrenergic α1B receptor (Homo sapiens)              %        −7
12  Cc1cc(F)c2c(c1)c1c(n2CC(O)c2ccncc2)CCN2CCCC12 (single isomer, unassigned) [137b]  Human adrenergic α1B receptor (Homo sapiens)              %        74
13  Cc1cc(Br)c2c(c1)c1c(n2CC(O)c2ccncc2)CCN2CCCC12 (single isomer, unassigned) [145b]  Human adrenergic α1B receptor (Homo sapiens)              %        68
14  Cc1ccc2c(c1)c1c(n2CC(C)(O)c2cccnc2)CC2CCCN2C1 (stereo not drawn) [38a]  Human adrenergic α1B receptor (Homo sapiens)              %        14
